- measured_target: porcine megalin (Sus scrofa, UniProt C0HL13)
- Sequence (C0HL13 26-4652): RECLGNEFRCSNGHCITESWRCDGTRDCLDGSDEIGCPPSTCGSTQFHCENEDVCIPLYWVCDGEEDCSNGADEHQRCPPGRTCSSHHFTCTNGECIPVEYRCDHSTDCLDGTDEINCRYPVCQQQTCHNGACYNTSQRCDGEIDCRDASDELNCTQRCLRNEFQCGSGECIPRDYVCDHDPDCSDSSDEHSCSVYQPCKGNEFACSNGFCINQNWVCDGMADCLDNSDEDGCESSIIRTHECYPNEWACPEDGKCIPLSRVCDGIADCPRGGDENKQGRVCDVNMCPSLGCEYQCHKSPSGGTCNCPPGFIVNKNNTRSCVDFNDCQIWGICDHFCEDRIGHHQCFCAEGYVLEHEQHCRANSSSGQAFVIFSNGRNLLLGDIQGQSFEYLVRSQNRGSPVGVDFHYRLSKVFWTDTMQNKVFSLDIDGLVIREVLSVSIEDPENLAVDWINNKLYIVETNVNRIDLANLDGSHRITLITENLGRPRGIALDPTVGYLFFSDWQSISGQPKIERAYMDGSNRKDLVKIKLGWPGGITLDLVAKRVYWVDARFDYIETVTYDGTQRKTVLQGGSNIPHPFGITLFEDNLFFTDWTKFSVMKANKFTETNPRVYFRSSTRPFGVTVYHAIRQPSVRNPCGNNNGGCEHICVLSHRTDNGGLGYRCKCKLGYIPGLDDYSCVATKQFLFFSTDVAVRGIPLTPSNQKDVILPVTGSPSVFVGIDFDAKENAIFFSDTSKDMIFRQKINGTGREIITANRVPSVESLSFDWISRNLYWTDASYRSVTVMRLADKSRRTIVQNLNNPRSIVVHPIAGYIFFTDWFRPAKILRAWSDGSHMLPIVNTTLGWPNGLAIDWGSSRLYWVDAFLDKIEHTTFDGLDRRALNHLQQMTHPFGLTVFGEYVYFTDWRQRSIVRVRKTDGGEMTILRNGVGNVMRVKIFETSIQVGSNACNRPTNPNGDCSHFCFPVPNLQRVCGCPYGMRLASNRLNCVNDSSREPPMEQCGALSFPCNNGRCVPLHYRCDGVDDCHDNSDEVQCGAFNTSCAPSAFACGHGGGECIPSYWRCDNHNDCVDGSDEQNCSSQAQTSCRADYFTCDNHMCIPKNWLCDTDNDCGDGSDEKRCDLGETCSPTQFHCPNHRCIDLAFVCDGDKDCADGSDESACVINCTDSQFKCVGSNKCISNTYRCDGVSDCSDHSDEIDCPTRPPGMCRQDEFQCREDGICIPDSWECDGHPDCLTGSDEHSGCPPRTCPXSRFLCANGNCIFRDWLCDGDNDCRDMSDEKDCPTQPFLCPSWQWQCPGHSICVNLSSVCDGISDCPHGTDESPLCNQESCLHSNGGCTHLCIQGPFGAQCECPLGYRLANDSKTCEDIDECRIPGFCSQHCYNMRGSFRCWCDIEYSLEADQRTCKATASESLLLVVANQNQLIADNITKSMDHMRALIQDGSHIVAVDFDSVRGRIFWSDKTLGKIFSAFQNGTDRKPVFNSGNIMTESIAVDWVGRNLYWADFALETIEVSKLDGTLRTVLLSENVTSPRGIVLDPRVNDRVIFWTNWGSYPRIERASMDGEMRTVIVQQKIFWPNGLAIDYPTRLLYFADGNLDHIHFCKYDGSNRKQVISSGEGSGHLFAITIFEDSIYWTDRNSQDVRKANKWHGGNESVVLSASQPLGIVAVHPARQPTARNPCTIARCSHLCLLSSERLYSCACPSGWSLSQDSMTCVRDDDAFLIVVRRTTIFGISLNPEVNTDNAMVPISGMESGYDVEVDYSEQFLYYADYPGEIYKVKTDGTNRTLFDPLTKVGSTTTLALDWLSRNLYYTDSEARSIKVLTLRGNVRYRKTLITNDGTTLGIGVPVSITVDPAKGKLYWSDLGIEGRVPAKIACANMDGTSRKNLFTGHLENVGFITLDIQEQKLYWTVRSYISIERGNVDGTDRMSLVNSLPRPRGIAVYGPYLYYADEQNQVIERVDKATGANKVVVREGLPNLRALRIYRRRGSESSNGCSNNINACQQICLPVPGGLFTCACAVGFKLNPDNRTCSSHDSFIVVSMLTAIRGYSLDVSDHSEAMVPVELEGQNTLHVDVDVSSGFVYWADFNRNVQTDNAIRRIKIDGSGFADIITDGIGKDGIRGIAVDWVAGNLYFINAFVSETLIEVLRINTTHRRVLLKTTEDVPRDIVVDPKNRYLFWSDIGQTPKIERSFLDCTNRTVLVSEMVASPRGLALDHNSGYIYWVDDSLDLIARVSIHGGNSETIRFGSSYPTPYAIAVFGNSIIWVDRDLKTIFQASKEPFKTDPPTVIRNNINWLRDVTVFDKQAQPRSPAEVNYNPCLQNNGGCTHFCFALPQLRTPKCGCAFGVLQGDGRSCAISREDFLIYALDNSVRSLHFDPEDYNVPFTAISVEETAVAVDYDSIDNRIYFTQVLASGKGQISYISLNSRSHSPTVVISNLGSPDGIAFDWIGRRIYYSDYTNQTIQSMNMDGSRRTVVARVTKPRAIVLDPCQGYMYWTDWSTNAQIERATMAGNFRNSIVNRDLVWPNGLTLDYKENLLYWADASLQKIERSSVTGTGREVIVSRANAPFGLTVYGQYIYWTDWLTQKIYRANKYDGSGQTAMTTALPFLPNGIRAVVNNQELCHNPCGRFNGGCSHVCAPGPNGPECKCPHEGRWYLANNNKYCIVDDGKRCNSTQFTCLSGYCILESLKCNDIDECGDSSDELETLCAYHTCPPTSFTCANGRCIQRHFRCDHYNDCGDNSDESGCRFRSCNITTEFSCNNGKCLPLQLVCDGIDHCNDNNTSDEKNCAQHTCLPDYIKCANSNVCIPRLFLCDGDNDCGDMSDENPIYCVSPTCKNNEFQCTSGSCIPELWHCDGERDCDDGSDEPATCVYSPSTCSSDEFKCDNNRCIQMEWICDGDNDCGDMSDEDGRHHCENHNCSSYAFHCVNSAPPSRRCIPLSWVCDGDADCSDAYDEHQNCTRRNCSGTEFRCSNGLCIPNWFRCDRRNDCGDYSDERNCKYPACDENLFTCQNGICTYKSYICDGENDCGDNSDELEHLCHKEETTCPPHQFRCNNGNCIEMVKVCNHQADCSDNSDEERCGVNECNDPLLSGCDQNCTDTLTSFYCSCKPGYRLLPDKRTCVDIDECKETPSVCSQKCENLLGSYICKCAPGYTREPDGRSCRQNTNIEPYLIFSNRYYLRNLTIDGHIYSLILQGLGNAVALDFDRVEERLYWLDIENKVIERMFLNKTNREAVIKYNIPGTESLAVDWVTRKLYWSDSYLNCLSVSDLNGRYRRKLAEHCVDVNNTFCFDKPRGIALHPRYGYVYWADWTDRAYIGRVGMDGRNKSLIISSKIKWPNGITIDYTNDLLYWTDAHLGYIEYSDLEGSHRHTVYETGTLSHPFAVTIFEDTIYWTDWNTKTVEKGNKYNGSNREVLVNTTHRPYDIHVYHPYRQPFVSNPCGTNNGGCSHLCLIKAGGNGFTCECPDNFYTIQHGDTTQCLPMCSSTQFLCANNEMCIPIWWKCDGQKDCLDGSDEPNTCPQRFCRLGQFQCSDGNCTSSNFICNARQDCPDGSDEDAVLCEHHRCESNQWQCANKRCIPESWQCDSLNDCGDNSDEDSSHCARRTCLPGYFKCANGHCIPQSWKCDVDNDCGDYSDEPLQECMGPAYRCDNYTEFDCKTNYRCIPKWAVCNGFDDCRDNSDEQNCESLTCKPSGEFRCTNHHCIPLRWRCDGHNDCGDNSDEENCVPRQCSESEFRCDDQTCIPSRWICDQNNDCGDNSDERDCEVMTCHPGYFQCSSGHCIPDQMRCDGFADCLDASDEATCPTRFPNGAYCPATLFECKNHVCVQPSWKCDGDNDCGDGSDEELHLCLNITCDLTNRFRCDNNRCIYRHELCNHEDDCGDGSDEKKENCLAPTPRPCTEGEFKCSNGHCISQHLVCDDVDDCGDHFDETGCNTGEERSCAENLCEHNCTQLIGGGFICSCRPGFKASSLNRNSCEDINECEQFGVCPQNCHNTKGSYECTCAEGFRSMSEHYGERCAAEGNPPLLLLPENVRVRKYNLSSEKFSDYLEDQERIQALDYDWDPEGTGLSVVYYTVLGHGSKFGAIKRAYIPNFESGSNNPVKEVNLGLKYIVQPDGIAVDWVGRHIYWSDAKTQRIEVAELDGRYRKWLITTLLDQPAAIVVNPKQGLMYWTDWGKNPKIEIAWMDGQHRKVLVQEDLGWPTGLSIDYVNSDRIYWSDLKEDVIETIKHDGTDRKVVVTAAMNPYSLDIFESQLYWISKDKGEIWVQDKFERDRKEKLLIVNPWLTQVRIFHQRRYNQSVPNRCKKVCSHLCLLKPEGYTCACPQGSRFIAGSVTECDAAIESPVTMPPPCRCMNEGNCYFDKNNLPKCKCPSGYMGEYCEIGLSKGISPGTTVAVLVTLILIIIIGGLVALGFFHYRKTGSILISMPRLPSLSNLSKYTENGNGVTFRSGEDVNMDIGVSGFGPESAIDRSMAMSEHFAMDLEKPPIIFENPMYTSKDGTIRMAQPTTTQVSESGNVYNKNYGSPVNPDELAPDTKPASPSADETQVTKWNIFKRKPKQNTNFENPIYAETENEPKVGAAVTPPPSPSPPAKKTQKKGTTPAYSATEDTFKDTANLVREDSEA
- assay_info: Surface plasmon resonance: competition for TC:B12 binding to chip-immobilized megalin
- condition_label: 10 µg/ml TC:B12 in 0 to 100 mM amino-acid; Biacore; read-out: IC50 for TC:B12/megalin interaction (mM; 95%CI)
endpoint_name: IC50 (mM)
Please state the figure in mM; there is no need to write the unit.

compound_structure: NC(N)=NCCC[C@@H](N)C(=O)O
result_units: mM
IC50: 60

Requested read-out IC50, target or system porcine megalin (Sus scrofa, UniProt C0HL13), entry `NCCCC[C@@H](N)C(=O)O`
22

* * *

- assay_info: Urinary and serum amino-acid concentration by mass spectrometry in Ctns KO mice
- Format: in vivo
- condition_label: female, C57BL/6, mouse, in vivo, 6.5 g/kg/day; Ctns KO mice, n = 4; read-out: serum lysine
endpoint_name: concentration at 2 months (µM)
Please state the figure in µM; there is no need to write the unit.

Given NCCCC[C@H](N)C(=O)O [5x-L-lysine, L-lysine] , state its recorded concentration at 2 months.
581

* * *

- measured_target: porcine megalin (Sus scrofa)
- assay_info: Surface plasmon resonance: competition for TC:B12 binding to chip-immobilized megalin
- condition_label: IC50 for TC:B12/megalin interaction (mM; 95%CI), 10 µg/ml TC:B12 in 0 to 100 mM amino-acid; Biacore
endpoint_name: IC50 (mM)
Please state the figure in mM; there is no need to write the unit.

molecule: NCCCC[C@H](N)C(=O)O [5x-L-lysine, L-lysine]
IC50 [mM]: 25

Please find the next molecule below.
Given N=C(N)NCCC[C@H](N)C(=O)O [5x-L-arginine, L-arginine] , state its recorded IC50.
57

* * *

- assay_info: Urinary and serum amino-acid concentration by mass spectrometry in Ctns KO mice
- Format: in vivo
- condition_label: female, C57BL/6, mouse, serum, oral, 7.6 g/kg/day; Ctns KO mice, n = 4; read-out: serum arginine
- Procedure: Body weight was recorded before entering the metabolic cages. […] Creatinine clearance was normalized by mouse body weight. Quantitative analysis of underivatized amino-acids in serum and urine samples was performed using the Amino Acids LC–MS/MS analysis Kit Jasem®. […] Equipment was controlled and data were analyzed using MassHunter Workstation (Agilent Technologies). […]
endpoint_name: concentration at 2 months (µM)
Please state the figure in µM; there is no need to write the unit.

Given N=C(N)NCCC[C@H](N)C(=O)O [5x-L-arginine, L-arginine] , state its recorded concentration at 2 months.
137
